tested_system: 5-Lipoxygenase from HWBL-1 20,000 xg Supernatant (Rattus norvegicus, UniProt P12527)
Construct: 20,000 xg supernatant from 1.5 million homogenized HWBL-1 cells; endogenous in cells
Sequence (P12527 whole entry): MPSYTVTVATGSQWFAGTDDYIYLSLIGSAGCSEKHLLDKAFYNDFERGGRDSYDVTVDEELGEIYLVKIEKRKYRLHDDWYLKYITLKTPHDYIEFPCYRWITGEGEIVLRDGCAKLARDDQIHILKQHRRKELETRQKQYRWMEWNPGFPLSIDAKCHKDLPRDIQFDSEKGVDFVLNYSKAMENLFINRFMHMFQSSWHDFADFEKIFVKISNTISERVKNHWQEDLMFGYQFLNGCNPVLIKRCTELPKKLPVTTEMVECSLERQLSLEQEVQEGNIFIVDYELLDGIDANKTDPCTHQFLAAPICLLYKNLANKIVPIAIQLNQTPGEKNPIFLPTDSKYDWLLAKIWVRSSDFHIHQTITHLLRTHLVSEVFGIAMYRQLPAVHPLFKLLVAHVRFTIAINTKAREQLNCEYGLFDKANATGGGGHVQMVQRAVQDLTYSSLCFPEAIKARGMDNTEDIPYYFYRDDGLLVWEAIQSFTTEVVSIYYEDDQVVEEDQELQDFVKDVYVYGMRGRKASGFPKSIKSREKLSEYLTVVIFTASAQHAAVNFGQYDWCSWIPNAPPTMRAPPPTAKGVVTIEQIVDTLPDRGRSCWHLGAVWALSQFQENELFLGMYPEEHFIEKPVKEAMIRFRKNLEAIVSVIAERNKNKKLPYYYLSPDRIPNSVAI
assay_procedure: 5-lipoxygenase inhibition, 20,000 xg supernatant of homogenized HWBL-1 cells, radiolabeled arachidonic acid
condition_details: read-out: IC50 (in vitro inhibitory potency against 5-lipoxygenase)
I'd appreciate it if you marked entries T when IC50 is lower than 200 nM and F when it is not.

Field: example entries. Status: answers known.
>  <compound>
COc1ccc(CN(C)CCN(O)C(N)=O)cc1OCc1ccccc1

>  <tested_system>
5-Lipoxygenase from HWBL-1 20,000 xg Supernatant (Rattus norvegicus, UniProt P12527)

>  <answer_label>
F

$$$$
>  <compound>
NC(=O)N(O)CCNS(=O)(=O)c1ccc2ccccc2c1

>  <tested_system>
5-Lipoxygenase from HWBL-1 20,000 xg Supernatant (Rattus norvegicus, UniProt P12527)

>  <answer_label>
F

$$$$
>  <compound>
NC(=O)N(O)CCNC(=O)c1ccc(Oc2ccc(Cl)cc2)o1

>  <tested_system>
5-Lipoxygenase from HWBL-1 20,000 xg Supernatant (Rattus norvegicus, UniProt P12527)

>  <answer_label>
T

$$$$
>  <compound>
CC(CNC(=O)c1cccc(Oc2ccccc2)c1)N(O)C(N)=O (stereo not shown)

>  <tested_system>
5-Lipoxygenase from HWBL-1 20,000 xg Supernatant (Rattus norvegicus, UniProt P12527)

>  <answer_label>
F

$$$$
>  <compound>
CN(CCN(O)C(N)=O)Cc1cccc(Oc2ccc(Cl)c(Cl)c2)c1

>  <tested_system>
5-Lipoxygenase from HWBL-1 20,000 xg Supernatant (Rattus norvegicus, UniProt P12527)

>  <answer_label>
F

$$$$

Data request: Hello, is IC50 of the following compound strictly smaller than 200 nM? NC(=O)N(O)CCNC(=O)c1cccc(Oc2ccccn2)c1
Data returned: F

Data request: Determine if CN(CCN(O)C(N)=O)Cc1cccc(Oc2ccc(Cl)cc2)c1 shows IC50 strictly lower than 200 nM.
Data returned: T

Data request: API: query returns whether the compound falls strictly under 200 nM in IC50. Query: NC(=O)N(O)CCNC(=O)c1cccc(C(=O)c2ccccc2)c1
Data returned: F

Data request: For this compound, is IC50 lower than 200 nM? NC(=O)N(O)CCNC(=O)Cc1cccc(Oc2ccccc2)c1
Data returned: F

Data request: Decide: IC50 of C[C@@H](CN(O)C(N)=O)NC(=O)c1ccc(Oc2ccc(F)cc2)o1 strictly below 200 nM?
Data returned: F

---

# key: entry, value: IC50
tested_system: 5-Lipoxygenase from HWBL-1 20,000 xg Supernatant (Rattus norvegicus)
Construct: 20,000 xg supernatant from 1.5 million homogenized HWBL-1 cells; endogenous in cells
assay_procedure: 5-lipoxygenase inhibition, 20,000 xg supernatant of homogenized HWBL-1 cells, radiolabeled arachidonic acid
condition_details: read-out: IC50 (in vitro inhibitory potency against 5-lipoxygenase)
Output spec: scalar in nM, unitless text.

Sample answers from the record:
>  <compound>
CC(CNC(=O)OC(C)(C)C)N(O)C(N)=O (stereo not shown)

>  <unit_annotation>
nM

>  <IC50>
290

$$$$
>  <compound>
C=C(C)COc1cccc(C(=O)NCCN(O)C(N)=O)c1

>  <unit_annotation>
nM

>  <IC50>
230

$$$$

Data request: Tell me the measured IC50 of NC(=O)N(O)CCNC(=O)c1cccc(Oc2ccc(F)cc2)c1 , please.
Data returned: 150

Data request: Value lookup for IC50; key = CNC(=O)N(O)CCNC(=O)c1cccc(Oc2ccccc2)c1
Data returned: 290
